# Tested on: NCI-H650 (Lung Adenocarcinoma)
# METHOD: Bliss excess, mean over the matrix (fraction); higher = more synergy
Classification field: enter True for Bliss excess values not below -0.007, False for values below it.

* CC(=O)c1c(C)c2cnc(Nc3ccc(N4CCNCC4)cn3)nc2n(C2CCCC2)c1=O [Palbociclib] + Cn1cnc2c(F)c(Nc3ccc(Br)cc3Cl)c(C(=O)NOCCO)cc21 [Selumetinib] (first compound max 10 µM, 7x7, partner max 10 µM) | True
* Cc1cc2ncnn2cc1Nc1ncc2c(n1)n(C1CCOCC1)c(=O)n2C [AZD7648] + CCN(CCO)CCCOc1ccc2c(Nc3cc(CC(=O)Nc4cccc(F)c4)[nH]n3)ncnc2c1 [AZD2811] (first compound max 10 µM, 7x7, partner max 1 µM) | False
* CCc1c2c(nc3ccc(O)cc13)-c1cc3c(c(=O)n1C2)COC(=O)[C@]3(O)CC [SN-38] + CN(C)CCCOc1ccc(-c2ccc3ncc4c(c3c2)n(C2CCOCC2)c(=O)n4C)cn1 [AZD0156] (first compound max 0.3 µM, 7x7, partner max 1 µM) | True
* C[C@@H](c1ccc2nccn2c1)n1nnc2ncc(-c3cnn(C)c3)nc21 [Savolitinib] + CN(CC[C@H](CSC1=CC=CC=C1)NC2=C(C=C(C=C2)S(=O)(=O)NC(=O)C3=CC=C(C=C3)N4CCC(CC4)[C@H](C5=CC=CC=C5C6=CC=C(C=C6)Cl)O)S(=O)(=O)C(F)(F)F)CCO [AZD4320] (first compound max 1 µM, 7x7, partner max 1 µM) | False
* CC1(C)CCC(CN2CCN(c3ccc(C(=O)NS(=O)(=O)c4ccc(NCC5CCOCC5)c([N+](=O)[O-])c4)c(Oc4cnc5[nH]ccc5c4)c3)CC2)=C(c2ccc(Cl)cc2)C1 [Venetoclax] + COc1cc(Nc2ncc3c(n2)-c2ccc(Cl)cc2C(c2c(F)cccc2OC)=NC3)ccc1C(=O)O [Alisertib] (first compound max 1 µM, 7x7, partner max 10 µM) | False
* CC(=O)c1c(C)c2cnc(Nc3ccc(N4CCNCC4)cn3)nc2n(C2CCCC2)c1=O [Palbociclib] + CC1(C)CCC(CN2CCN(c3ccc(C(=O)NS(=O)(=O)c4ccc(NCC5CCOCC5)c([N+](=O)[O-])c4)c(Oc4cnc5[nH]ccc5c4)c3)CC2)=C(c2ccc(Cl)cc2)C1 [Venetoclax] (first compound max 10 µM, 7x7, partner max 1 µM) | False
* CN(CCO)CC[C@H](CSc1ccccc1)Nc1ccc(S(=O)(=O)NC(=O)c2ccc(N3CCC([C@@H](O)c4ccccc4-c4ccc(Cl)cc4)CC3)cc2)cc1S(=O)(=O)C(F)(F)F [AZD4320] + CCN(CCO)CCCOc1ccc2c(Nc3cc(CC(=O)Nc4cccc(F)c4)[nH]n3)ncnc2c1 [AZD2811] (first compound max 1 µM, 7x7, partner max 1 µM) | False

Then there is this compound:
Prompt line: Could you verify whether the entry CCN(CCO)CCCOc1ccc2c(Nc3cc(CC(=O)Nc4cccc(F)c4)[nH]n3)ncnc2c1 [AZD2811] + C=CCn1c(=O)c2cnc(Nc3ccc(N4CCN(C)CC4)cc3)nc2n1-c1cccc(C(C)(C)O)n1 [AZD1775] (first compound max 1 µM, partner max 1 µM) shows Bliss excess of no less than -0.007?
Response line: True

* * *

# Test system: CADO-ES1 (Ewing's Sarcoma)
# METHOD: combination Emax (second highest fraction inhibited in the dose matrix, 72 h); higher = more inhibition; extreme values may be limits of the assay
Give combination Emax for every item shown.
One number for each entry.

* COc1nnc2ccc(N3CCC(c4ccc(OCCN5CCN(C)C(=O)[C@H]5C)cc4)CC3)nn12 [AZD5153] + C[C@@H]1COCCN1C2=NC(=NC(=C2)C3(CC3)[S@](=N)(=O)C)C4=C5C=CNC5=NC=C4 [AZD6738] (first compound max 1 µM, 7x7, partner max 10 µM) | 0.88
* Cn1cnc2c(F)c(Nc3ccc(Br)cc3Cl)c(C(=O)NOCCO)cc21 [Selumetinib] + C=CCn1c(=O)c2cnc(Nc3ccc(N4CCN(C)CC4)cc3)nc2n1-c1cccc(C(C)(C)O)n1 [AZD1775] (first compound max 10 µM, partner max 1 µM) | 0.294
* Cc1cc2ncnn2cc1Nc1ncc2c(n1)n(C1CCOCC1)c(=O)n2C [AZD7648] + C[C@@H]1COCCN1C2=NC(=NC(=C2)C3(CC3)[S@](=N)(=O)C)C4=C5C=CNC5=NC=C4 [AZD6738] (first compound max 10 µM, 7x7, partner max 10 µM) | 0.824
* COc1cccc(OCCCN)c1-c1cc(Nc2cnc(C#N)cn2)n[nH]1 [Prexasertib] + O=C(c1cc(Cc2n[nH]c(=O)c3ccccc23)ccc1F)N1CCN(C(=O)C2CC2)CC1 [Olaparib] (first compound max 1 µM, 7x7, partner max 10 µM) | 0.943

For every item below, please supply its combination Emax.
1. Cc1c2c(nn1C)CSCc1cc(n(C)n1)CSc1cc(c3ccccc3c1)OCCCc1c(C(=O)O)n(C)c3c-2c(Cl)ccc13 [AZD5991] + C[C@@H]1COCCN1C2=NC(=NC(=C2)C3(CC3)[S@](=N)(=O)C)C4=C5C=CNC5=NC=C4 [AZD6738] (first compound max 1 µM, 7x7, partner max 10 µM)
2. CC1(C)CCC(CN2CCN(c3ccc(C(=O)NS(=O)(=O)c4ccc(NCC5CCOCC5)c([N+](=O)[O-])c4)c(Oc4cnc5[nH]ccc5c4)c3)CC2)=C(c2ccc(Cl)cc2)C1 [Venetoclax] + C1CN(CCC1(C(=O)N[C@@H](CCO)C2=CC=C(C=C2)Cl)N)C3=NC=NC4=C3C=CN4 [Capivasertib] (first compound max 1 µM, 7x7, partner max 3 µM)
3. Cc1c2c(nn1C)CSCc1cc(n(C)n1)CSc1cc(c3ccccc3c1)OCCCc1c(C(=O)O)n(C)c3c-2c(Cl)ccc13 [AZD5991] + CCN(CCO)CCCOc1ccc2c(Nc3cc(CC(=O)Nc4cccc(F)c4)[nH]n3)ncnc2c1 [AZD2811] (first compound max 1 µM, 7x7, partner max 1 µM)
4. CN(CCO)CC[C@H](CSc1ccccc1)Nc1ccc(S(=O)(=O)NC(=O)c2ccc(N3CCC([C@@H](O)c4ccccc4-c4ccc(Cl)cc4)CC3)cc2)cc1S(=O)(=O)C(F)(F)F [AZD4320] + C1CN(CCC1(C(=O)N[C@@H](CCO)C2=CC=C(C=C2)Cl)N)C3=NC=NC4=C3C=CN4 [Capivasertib] (first compound max 1 µM, 7x7, partner max 3 µM)

Response line:
1. 0.989
2. 0.667
3. 0.908
4. 0.613

* * *

# System: SW872 (Other Solid Carcinomas)
# METHOD: Bliss excess, mean over the matrix (fraction); higher = more synergy
REPORTED METRIC: Bliss excess
Give bare numbers.

Examples from the recorded data:
- COc1cccc(OCCCN)c1-c1cc(Nc2cnc(C#N)cn2)n[nH]1 [Prexasertib] + CCc1c2c(nc3ccc(O)cc13)-c1cc3c(c(=O)n1C2)COC(=O)[C@]3(O)CC [SN-38] (first compound max 1 µM, 7x7, partner max 0.3 µM): -0.015
- C=CCn1c(=O)c2cnc(Nc3ccc(N4CCN(C)CC4)cc3)nc2n1-c1cccc(C(C)(C)O)n1 [AZD1775] + C1CN(CCC1(C(=O)N[C@@H](CCO)C2=CC=C(C=C2)Cl)N)C3=NC=NC4=C3C=CN4 [Capivasertib] (first compound max 3 µM, partner max 3 µM): -0.106
- N#Cc1cnc(Nc2cc(NC[C@H]3CNCCO3)c(C(F)(F)F)cn2)cn1 [SRA737] + O=c1[nH]cc(F)c(=O)[nH]1 [5-Fluorouracil] (first compound max 10 µM, 7x7, partner max 20 µM): 0.0629
- COc1cccc2c1C(=O)c1c(O)c3c(c(O)c1C2=O)C[C@@](O)(C(=O)CO)C[C@@H]3O[C@H]1C[C@H](N)[C@H](O)[C@H](C)O1 [Doxorubicin] + Cc1cc2ncnn2cc1Nc1ncc2c(n1)n(C1CCOCC1)c(=O)n2C [AZD7648] (first compound max 1 µM, 7x7, partner max 10 µM): 0.0299
- NC1(C(=O)N[C@@H](CCO)c2ccc(Cl)cc2)CCN(c2ncnc3[nH]ccc23)CC1 [Capivasertib] + COc1nnc2ccc(N3CCC(c4ccc(OCCN5CCN(C)C(=O)[C@H]5C)cc4)CC3)nn12 [AZD5153] (first compound max 10 µM, 7x7, partner max 1 µM): -0.0399
- COc1nnc2ccc(N3CCC(c4ccc(OCCN5CCN(C)C(=O)[C@H]5C)cc4)CC3)nn12 [AZD5153] + CC1(C)CCC(CN2CCN(c3ccc(C(=O)NS(=O)(=O)c4ccc(NCC5CCOCC5)c([N+](=O)[O-])c4)c(Oc4cnc5[nH]ccc5c4)c3)CC2)=C(c2ccc(Cl)cc2)C1 [Venetoclax] (first compound max 1 µM, 7x7, partner max 1 µM): -0.051

Prompt line: Sample CN(CCO)CC[C@H](CSc1ccccc1)Nc1ccc(S(=O)(=O)NC(=O)c2ccc(N3CCC([C@@H](O)c4ccccc4-c4ccc(Cl)cc4)CC3)cc2)cc1S(=O)(=O)C(F)(F)F [AZD4320] + CS(=O)(=O)CCNCc1ccc(-c2ccc3ncnc(Nc4ccc(OCc5cccc(F)c5)c(Cl)c4)c3c2)o1 [Lapatinib] (first compound max 1 µM, 7x7, partner max 10 µM) — what was its Bliss excess?
Response line: 0.0097
